Could you please report measured koff for the items listed next?
- test-target: T1, human PDGF-BB (platelet derived growth factor B homodimer) (human, UniProt P01127)
- T1 construct: Platelet derived growth factor B, human, homodimer, bought from PeproTech; the printed catalogue number may stand for 100-14B; source: bought: PeproTech, Catalog 100-148
- T1 sequence (P01127 82-190): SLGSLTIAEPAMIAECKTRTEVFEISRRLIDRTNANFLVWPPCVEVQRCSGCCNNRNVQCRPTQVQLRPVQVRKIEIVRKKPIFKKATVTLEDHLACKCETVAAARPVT
- experiment-notes: SPR; Biacore T200, full kinetics; antibody captured by anti-human IgG on a CM5 chip; human PDGF-BB at 20, 10, 5, 2.5 and 1.25 nM, 50 s injection; HBS-EP+ N; 25 C; 1:1 Langmuir fit
- reported-conditions: both partners purified
The answer should read as a number with its unit following.

Value lookup for koff; key = R1-016 (antibody, V domains shown, only the variable regions are written; source: HEK293, transient, purified from conditioned medium (protein A, TMAE, HIC)) VH: EVQLLQSGGGLVKPGGSLRLSCAASGFTFSSYAMSWVRQAPGKGLEWVSYISDDGSLKYYADSVKGRFTISRDNSKNTLYLQMNSLRAEDTAVYYCARHPYWYGGQLDLWGQGTLVTVSS VL: SYELTQPPSVSVSPGQTASITCSGDSLGSYFVHWYQQKPGQSPVLVIYDDSKRPSGIPERFSGSNSGNTATLTISGTQAMDEADYYCSAFTHNSDVFGGGTKLTVL
0.000357 s⁻¹

Same question, R2-006 (antibody, V domains shown, as the VH of m20 (R2-001_HC); as the VL of m20 (R2-001_LC) with S52K (Kabat); only the variable regions are written; source: HEK293, transient, purified from conditioned medium (protein A, TMAE, HIC)) VH: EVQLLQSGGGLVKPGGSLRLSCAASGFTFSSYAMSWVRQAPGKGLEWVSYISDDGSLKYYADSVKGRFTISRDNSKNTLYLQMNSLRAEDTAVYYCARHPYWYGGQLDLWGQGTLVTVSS VL: SYVLTQPPSVSVAPGKTARITCSGDSLGSYFVHWYQQKPGQSPVLVIYDDKKRPSGIPERFSGSNSGNTATLTISGTQAMDEADYYCSAFTHNSDVFGGGTKLTVL this time
0.000336 s⁻¹

Same question, R2-020 (antibody, V domains shown, as the VH of m20 (R2-001_HC); as the VL of m20 (R2-001_LC) with D51N (Kabat); only the variable regions are written; source: HEK293, transient, purified from conditioned medium (protein A, TMAE, HIC)) VH: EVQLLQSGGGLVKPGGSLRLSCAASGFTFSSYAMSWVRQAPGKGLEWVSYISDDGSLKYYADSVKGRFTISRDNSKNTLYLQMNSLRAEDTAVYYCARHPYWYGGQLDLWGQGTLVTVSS VL: SYVLTQPPSVSVAPGKTARITCSGDSLGSYFVHWYQQKPGQSPVLVIYDNSKRPSGIPERFSGSNSGNTATLTISGTQAMDEADYYCSAFTHNSDVFGGGTKLTVL this time
0.00061 s⁻¹
